Would you kindly list viability for each of these molecules?
assay: reducers of endogenous Her2 protein level, primary screen, SKBR3 breast tumor cells, AlphaScreen, ATP viability (AID 461); settings: 18-24 h, measured here: SKBR3 viability, ATP luminescence, at 10 µM;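 also: percent of carrier control wells set as 100% viability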
Answers are plain numbers, in %.

# return viability for each item in the list
1. Cc1nc2sc(C(c3ccccc3)N3CCN(c4ccccc4F)CC3)c(O)n2n1 (configuration not stated)
2. Cn1c(SCc2nnc3n2CCCCC3)nc2ccccc21
3. c1ccc(CN2C3=NCCCN3c3ccccc32)cc1
4. O=C(C1CCCO1)N1CCN(Cc2nc3ccccc3c(=O)[nH]2)CC1 (configuration not stated)
5. CCOP(=O)(c1ccc(N(C)C)cc1)C(O)c1ccccc1OC (configuration not stated)

1: 91.5; 2: 103; 3: 79; 4: 91.5; 5: 86

# return viability for each item in the list
1. CCOc1cc(C2c3c(n[nH]c3C)C(=O)N2c2ccc(Br)cc2)ccc1O (configuration not stated)
2. O=C(CSc1nnnn1C1CCCC1)Nc1cccc(NC(=O)c2ccco2)c1
3. COc1ccc(-c2nc(C#N)c(N3CCOCC3)o2)cc1OC
4. COc1cc(Cn2c(C(=O)O)cc3sccc32)cc(OC)c1OC

[102, 91.5, 111, 107]

###

test: growth inhibitors of H69AR lung tumor, primary screen, human, duplicate replicates (AID 580); conditions: H69AR lung tumor cells viability, ATP luminescence, 72 h; at 10 µM; stronger effect = lower value;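 also: 100% = mean luminescence of untreated wells and 0% = no signal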
Please use T for viability under 90% and F for everything else, ties included.

Lab log: compare recorded viability with 90%; is it strictly lower for `O=c1[nH]c(/C(=N\O)c2ccccc2)no1` ?
T

Lab log: compare recorded viability with 90%; is it strictly lower for `CC1CCN(S(=O)(=O)c2ccc(NC(=O)CSc3nnnn3C)cc2)CC1` ?
F

Lab log: compare recorded viability with 90%; is it strictly lower for CCc1[nH]nc2c1C(c1ccncc1)C(C#N)=C(N)O2 (configuration not stated) ?
F

###

test: reversal of MRP1-mediated doxorubicin resistance, pilot screen, H69AR cells, doxorubicin co-treatment (AID 601); conditions: H69AR cells + 2 uM doxorubicin, CellTiter-Glo, 72 h; measured here: viability with 2 uM doxorubicin; at 10 µM; stronger effect = lower value
RESULT TYPE: viability (%)
Answers are plain numbers, in %.

In [3]: df
Out[3]:
                                   molecule  observed_value
0  O=C(CN1CCOCC1)N1CCCc2c1c(=O)oc1ccc(OCc3ccccc3)cc21            72.6

# return viability for each item in the list
1. O=C(NCc1ccco1)c1cnn2c(C(F)(F)F)cc(-c3ccco3)nc12
2. CC(C)=CCCC(C)NC(=O)NC1CCCCC1 (stereo unspecified)
3. CCn1c(=S)sc2nc(C)sc21
4. O=C(c1cnn2c(C(F)(F)F)cc(-c3ccco3)nc12)N1CCc2ccccc2C1
5. CCOC(=O)c1ccccc1NC(=O)CSc1nnc(COc2ccccc2C)n1C

[71.7, 88.6, 90.1, 85.7, 73]

###

test: growth suppression of yeast trafficking mutant, preliminary HTS, modulators of trafficking downstream of Golgi apparatus project, 1536-format plate, OD 615 nm (AID 637); conditions: yeast transport mutant growth, absorbance 615 nm, 18 h; stronger effect = higher value
Would you kindly list inhibition for each of these compounds?
Numbers only, in %.

>>> print(df.to_string())
                                   compound  observed_value
0    CCOC(=O)CNC(=O)c1c(C)nn(-c2ccccc2)c1Cl           -7.27
1  COc1ccc2nc(NC(=O)C3CCCN(S(=O)(=O)c4cccc5nsnc45)C3)sc2c1 (stereo unspecified)            -2.7
2   O=C(NC1CCCC1)c1ccc(S(=O)(=O)N2CCCC2)cc1            0.83

# return inhibition for each item in the list
1. Cc1ccccc1NC(=O)C1CC(=O)N(c2ccccc2F)C1 (stereo unspecified)
2. CCCn1c(N2CCN(CC(=O)Nc3ccc4c(c3)OCCO4)CC2)nc2ccccc21
3. CN(CC(=O)NCCC1=CCCCC1)S(=O)(=O)c1ccc2c(c1)CCC(=O)N2
4. Cc1ccccc1C(=O)Nc1c(C(=O)N2CCCC2)cnn1-c1ccccc1
5. COc1cccc2cc(C(=O)N3CCN(C45CC6CC(CC(C6)C4)C5)CC3)c(=O)oc12

6.89
4.59
-1.48
-0.63
-9.52
